Molecular target: hM4 receptors (Homo sapiens, UniProt P08173)
Sequence (P08173 whole entry): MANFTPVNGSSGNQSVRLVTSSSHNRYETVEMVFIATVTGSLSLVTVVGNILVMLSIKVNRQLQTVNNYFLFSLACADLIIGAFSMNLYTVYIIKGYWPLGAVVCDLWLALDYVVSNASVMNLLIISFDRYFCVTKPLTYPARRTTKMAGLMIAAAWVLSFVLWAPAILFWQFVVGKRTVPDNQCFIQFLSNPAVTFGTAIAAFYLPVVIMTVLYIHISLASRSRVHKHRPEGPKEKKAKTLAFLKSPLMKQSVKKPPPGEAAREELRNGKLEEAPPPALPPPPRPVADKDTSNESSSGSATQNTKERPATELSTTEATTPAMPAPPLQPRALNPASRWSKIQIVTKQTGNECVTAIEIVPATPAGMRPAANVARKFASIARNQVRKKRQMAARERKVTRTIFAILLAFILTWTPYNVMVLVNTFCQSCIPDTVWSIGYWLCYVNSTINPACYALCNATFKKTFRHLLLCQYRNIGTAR
Experiment: Human M4 PAM pERK assay
Conditions: PAM mode
pEC50: −log10 of the molar value.
Form field: pEC50 (one value per entry).

Below: 5 molecules and their reported pEC50.
> print(dat)
                                   molecule  value.measured
1  Cc1c(OC(F)F)c2c(n(C)c1=O)CN(C(=O)c1cnn(C(F)(F)F)c1)C2 [Compound I-89]    6.30 to 7.00
2  Cc1c2c(n(C)c(=O)c1Cl)CN(C(=O)c1cn(CC(C)C)cn1)C2 [Compound I-19]    5.70 to 6.30
3  Cc1c2c(n(C)c(=O)c1Cl)CN(C(=O)c1ccc(C(F)(F)F)nc1)C2 [Compound I-44]    6.30 to 7.00
4  COCCn1cc(C(=O)N2Cc3c(C)c(Cl)c(=O)n(C)c3C2)cn1 [Compound I-63]          < 5.70
5  Cc1c2c(n(C)c(=O)c1Cl)CN(C(=O)c1ccc3nc(C4CCC4)sc3c1)C2 [Compound I-51]          > 7.00

Prompt: Reported pEC50 for Cc1c2c(n(C)c(=O)c1Cl)CN(C(=O)c1ccc(C(F)(F)F)cc1)C2 [Compound I-41] : what is it?
Completion: 6.30 to 7.00

Prompt: Reported pEC50 for Cc1c2c(n(C)c(=O)c1Cl)CN(C(=O)c1ccc3ncsc3c1)C2 [Compound I-46] : what is it?
Completion: > 7.00

Prompt: Reported pEC50 for Cc1nc(C(=O)N2Cc3c(C)c(Cl)c(=O)n(C)c3C2)co1 [Compound I-12] : what is it?
Completion: 6.30 to 7.00

Prompt: Reported pEC50 for Cc1cc(=O)n(C)c2c1[C@@H](C)N(C(=O)c1ccc3nc(C4CC4)sc3c1)C2 [Compound I-103] : what is it?
Completion: 6.30 to 7.00

Prompt: Reported pEC50 for Cc1coc(C(=O)N2Cc3c(C)c(Cl)c(=O)n(C)c3C2)n1 [Compound I-22] : what is it?
Completion: 6.30 to 7.00

Prompt: Reported pEC50 for Cc1c2c(n(C)c(=O)c1Cl)CN(C(=O)c1cnc(C(F)(F)F)s1)C2 [Compound I-29] : what is it?
Completion: > 7.00

---

Target: rM4 receptors (Rattus norvegicus)
Sequence (P08485 whole entry): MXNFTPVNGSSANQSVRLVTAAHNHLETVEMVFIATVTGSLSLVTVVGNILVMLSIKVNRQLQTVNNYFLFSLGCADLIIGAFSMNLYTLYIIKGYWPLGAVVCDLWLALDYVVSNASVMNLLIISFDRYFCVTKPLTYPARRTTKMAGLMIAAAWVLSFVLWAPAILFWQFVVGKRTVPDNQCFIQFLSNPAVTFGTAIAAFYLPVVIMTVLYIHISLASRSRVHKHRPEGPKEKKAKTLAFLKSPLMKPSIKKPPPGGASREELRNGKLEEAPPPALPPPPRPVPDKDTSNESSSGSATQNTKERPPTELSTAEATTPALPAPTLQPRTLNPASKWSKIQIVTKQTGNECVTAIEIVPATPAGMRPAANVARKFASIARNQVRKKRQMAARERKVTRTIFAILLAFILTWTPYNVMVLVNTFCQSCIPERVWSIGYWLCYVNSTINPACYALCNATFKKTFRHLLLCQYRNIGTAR
Assay: Rat M4 PAM pERK assay
Details: PAM mode
REPORTED METRIC: EC50

Below: 2 compounds and their reported EC50.
> print(dat)
                                   compound  reported.metric  value.measured
1  Cc1cc(=O)n(C)c2c1CN(C(=O)c1cnn(C)c1)C2C (single isomer, unassigned) [Compound I-107]             EC50       > 2000 nM
2  Cc1c2c(n(C)c(=O)c1Cl)CN(C(=O)c1cnn(CC3COC3)c1)C2 [Compound I-54]             EC50       > 2000 nM

Prompt: Reported EC50 for Cc1c2c(n(C)c(=O)c1Cl)CN(C(=O)c1cc(CC(F)(F)F)on1)C2 [Compound I-58] : what is it?
Completion: > 2000 nM

Prompt: Reported EC50 for Cc1cc(=O)n(C)c2c1C(C)N(C(=O)c1ccc3nc(C4CC4)sc3c1)C2 (single isomer, unassigned) [Compound I-99] : what is it?
Completion: 500 to 2000 nM

Prompt: Reported EC50 for Cc1cc(=O)n(C)c2c1[C@H](C)N(C(=O)c1ccc3nc(C4CC4)sc3c1)C2 [Compound I-102] : what is it?
Completion: > 2000 nM

Prompt: Reported EC50 for Cc1c2c(n(C)c(=O)c1Cl)CN(C(=O)c1cnn(CC3CCCC3)c1)C2 [Compound I-55] : what is it?
Completion: > 2000 nM

Prompt: Reported EC50 for Cc1cc(=O)n(C)c2c1C(C)N(C(=O)c1cnc(C(F)(F)F)s1)C2 (single isomer, unassigned) [Compound I-95] : what is it?
Completion: > 2000 nM

Prompt: Reported EC50 for Cc1c2c(n(C)c(=O)c1Cl)CN(C(=O)c1cnc(C(F)(F)F)s1)C2 [Compound I-29] : what is it?
Completion: 500 to 2000 nM
